Molecular target: bovine trypsin (Bos taurus, UniProt P00760)
Sequence (P00760 24-246): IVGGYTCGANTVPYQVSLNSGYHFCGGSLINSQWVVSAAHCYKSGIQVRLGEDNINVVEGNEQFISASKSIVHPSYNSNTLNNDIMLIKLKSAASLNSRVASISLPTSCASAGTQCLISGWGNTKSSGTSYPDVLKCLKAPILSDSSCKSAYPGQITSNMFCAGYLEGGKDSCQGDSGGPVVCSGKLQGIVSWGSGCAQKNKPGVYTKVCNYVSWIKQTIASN
Assay: Inactivation rate of bovine trypsin, incubation method
Type: biochemical
Conditions: Table II; 0.13 μM trypsin, 0.25-42 μM inhibitor, 80 mM Hepes pH 7.5, 1 mM CaCl2, 8% DMSO, 25° C.; NI = no inhibition
Protocol: Inactivation rates of serine proteases by aryl diesters of peptidyl derivatives of α-aminoalkylphosphonates were measured by the incubation method. […] Aliquots (50 μl) were withdrawn at various intervals and the residual enzymatic activity was measured. […] All peptide thioesters hydrolysis rates were measured with the assay mixture containing 4,4'-dithiodipyridine {ε324 =19800 M^-1 cm^-1; Grasetti & Murray, Arch. […] ^a Inhibition constants were measured in 0.1M Hepes, 0.01M CaCl2 […]
value-kind: kobs /[I] bovine trypsin

>>> result("N=C(N)c1ccc(C(NC(=O)[C@@H]2CCCN2C(=O)CC(c2ccccc2)c2ccccc2)P(=O)(Oc2ccccc2)Oc2ccccc2)cc1 (stereo partly shown)")
"2,660 ± 40 M^-1 s^-1"
>>> result("C[C@H](NC(=O)[C@H](CC(=O)OC(C)(C)C)NC(=O)OCc1ccccc1)C(=O)NC(c1ccc(C(=N)N)cc1)P(=O)(Oc1ccccc1)Oc1ccccc1 (stereo partly shown)")
"2,000 ± 24 M^-1 s^-1"
>>> result("N=C(N)c1ccc(C(NC(=O)Oc2cccc3ccccc23)P(=O)(Oc2ccccc2)Oc2ccccc2)cc1 (stereo not shown)")
"30 ± 1 M⁻¹ s⁻¹"
>>> result("N=C(N)c1ccc(C(NC(=O)C2CCCN2C(=O)CCc2ccccc2)P(=O)(Oc2ccccc2)Oc2ccccc2)cc1 (stereo not shown)")
"1,520 ± 27 M^-1 s^-1"

These entries and their values trace back to patent US5952307A.
